target or system: T1, Recombinant human Dkk-1 (R&D Systems cat no. 1096-DK/CF), 10xHis tag at the C terminal (human, UniProt O94907 32-266)
T1 construct: the actual N-terminus of the purified protein is marked in bold italic after residue 30, but the mark is an image lost in the text; also called rhuDkk-1; hDkk-1
T1 sequence: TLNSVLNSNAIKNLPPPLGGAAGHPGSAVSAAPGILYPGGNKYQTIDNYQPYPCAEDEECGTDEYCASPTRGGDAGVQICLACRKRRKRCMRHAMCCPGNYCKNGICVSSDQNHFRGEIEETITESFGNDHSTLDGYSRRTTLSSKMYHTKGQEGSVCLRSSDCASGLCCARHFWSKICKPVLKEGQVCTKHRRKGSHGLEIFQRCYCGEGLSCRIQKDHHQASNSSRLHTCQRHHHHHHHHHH
assay notes: SPR screening 37C (BIAcore/ProteOn), Fab lysate over biotinylated human Dkk-1

{"binder": "SL3.1F11 (Fab, V domains shown, tested as Fab (E. coli lysate, screening mode); human kappa CL and IgG2 CH1 not included here) VH: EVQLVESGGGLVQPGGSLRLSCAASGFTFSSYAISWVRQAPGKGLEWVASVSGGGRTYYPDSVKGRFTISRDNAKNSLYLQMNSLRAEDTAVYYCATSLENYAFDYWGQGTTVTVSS VL: EIVLTQSPATLSLSPGERATLSCRASESVDDFGISFMNWYQQKPGQAPRLLIYAASKQGSGIPARFSGSGSGTDFTLTISSLEPEDFAVYYCQQSWEVPPTFGGGTKVEIK", "koff": "0.0054 s⁻¹"}
{"binder": "L2.1E5 (Fab, V domains shown, tested as Fab (E. coli lysate, screening mode); human kappa CL and IgG2 CH1 not included here; printed changes identical to clone 24) VH: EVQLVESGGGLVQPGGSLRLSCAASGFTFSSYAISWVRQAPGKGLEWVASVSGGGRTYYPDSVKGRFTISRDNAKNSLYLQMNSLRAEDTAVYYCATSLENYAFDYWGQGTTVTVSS VL: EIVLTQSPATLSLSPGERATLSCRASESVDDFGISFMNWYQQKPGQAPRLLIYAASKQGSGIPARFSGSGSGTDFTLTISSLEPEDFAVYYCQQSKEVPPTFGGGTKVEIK", "koff": "0.0057 s⁻¹"}
{"binder": "SL3.4A10 (Fab, V domains shown, tested as Fab (E. coli lysate, screening mode); human kappa CL and IgG2 CH1 not included here) VH: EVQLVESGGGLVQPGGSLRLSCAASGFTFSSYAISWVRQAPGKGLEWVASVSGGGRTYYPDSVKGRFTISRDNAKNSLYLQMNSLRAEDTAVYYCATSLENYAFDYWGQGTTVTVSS VL: EIVLTQSPATLSLSPGERATLSCRASESVDDFGISFMNWYQQKPGQAPRLLIYAASKQGSGIPARFSGSGSGTDFTLTISSLEPEDFAVYYCQQSLEVPPTFGGGTKVEIK", "koff": "0.0073 s⁻¹"}
